Test: Ligand binding assay by ANS displacement, THC
Details: FIG. 8; 2 μM protein, 20 μM ANS, 33 μM ligand, 20° C.
Measured property: binding to THC by ANS displacement (relative change in fluorescence)

[
  {
    "Molecule": "33 (protein, listed as Macleaya cordata) MIRYSGRWFEVASLKRGFAGSGQEDCHCTQGVYTFDSEAPAIQVDTFCVHGGPDGYITGIRGKVQCLSEEDLEKNETDLEKRVMIREKCYLRFPTLPFIPKEPYDVIATDYDNFALVSGAKDTSFIQIYSRTPNPGPEFIEKYKSYLGNYGYDPSMIKDTPQ",
    "Endpoint result": "bind to both THC and CBD"
  },
  {
    "Molecule": "10 (protein, Micractinium conductrix) MHVSTRQPCGAAPTAWPAQRPRSSPRRLACSAVLRDDARGVLQQAGLKLAAAAAAVLLAAPLHAGAASMPANAPLPALPPAPFDIEQSKQSKLLFDPMAYSGRWYEVASLKRGFAGEGQQDCHCTQGIYTPKEGGPEGAIKLEVDTFCVHGGPGGRLSGIQGSVSCADPLLLSYLPEFQTEMEMVEGFVAKCALRFDSLAFLPPEPYVVLRTDYTSYALVRGAKDRSFVQIYSRTPNPGAKFIAEQKAVLGQLGYPANDIVDTPQDCPEMAPQAMMAAMNRGMSSTPTMPASTPPALAMAGYDLGPAAVVLGEEAPAPVKGIAFDRLRNPLESLKNVFSLFN",
    "Endpoint result": "bind to both THC and CBD"
  }
]
